test: CRL1545 cell growth, single agent and combined, cisplatin and BGB IC20 combos (AID 1671464); conditions: CRL1545 osteosarcoma cells, at 0.5 µM, stronger effect = higher value;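 also: cells exposed to compound for 96 hours before readout; 0% = vehicle DMSO and 100% = high DMSO killing control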
property: inhibition (%)
State the answer as a number, implicitly in %.

These recorded examples may help you get a feel for the data.
{"compound": "NC(=O)c1cccc2[nH]c(-c3ccc(C4CCCN4)cc3F)nc12 (stereo unspecified)", "property": "inhibition", "value measured": -0.89}
{"compound": "Nc1nc(NC2CC2)cc(-c2cccc(Cl)c2Cl)n1", "property": "inhibition", "value measured": -36.8}
{"compound": "CC(C)(C#N)c1ccc(N2C(=O)OCc3cnc4ccc(-c5cnc6ccccc6c5)cc4c32)cc1", "property": "inhibition", "value measured": 0.16}
{"compound": "Cc1cc(C=CC#N)cc(C)c1Nc1ccnc(Nc2ccc(C#N)cc2)n1", "property": "inhibition", "value measured": -12.8}
{"compound": "CC(C)c1ccc(-c2cc(=O)c3ccccc3o2)cc1", "property": "inhibition", "value measured": -29.6}

Please look at the following compound next.
Exam item: Report measured inhibition; entry is O=c1ccn(C2CC(O)C(CO)O2)c(=O)[nH]1 (stereo unspecified)
Marked response: -20.7

====

Examples of compounds with documented fold change follow.
assay: viability loss with induced miR-34 in A549 – imaging, A549 dox-inducible miR-34, nuclei and caspase counts, primary screen (AID 1347080); conditions: A549 miR-34 inducible, Hoechst nuclei count, 48 h; measured here: relative caspase fold change +Dox/-Dox

{"compound": "CC(=O)c1cc([N+](=O)[O-])c(Sc2ccc(F)cc2F)s1", "fold change": 0.374}
{"compound": "Cc1nc(Nc2n[nH]c3c2CN(C(=O)NC(CN(C)C)c2ccccc2)C3(C)C)c2sccc2n1 (centres undefined)", "fold change": 0.274}
{"compound": "CCC(=O)O[C@H]1CCC2C3CCc4cc(O)ccc4C3CC[C@@]21C (some centres undefined)", "fold change": 2.49}
{"compound": "C[C@]12C=CC(=O)C=C1CC[C@H]1[C@@H]3CC(O)[C@@](O)(C(=O)CO)[C@@]3(C)CC(O)[C@]12F (some centres undefined)", "fold change": 0.627}
{"compound": "CC1(C)S[C@@H]2[C@H](NC(=O)[C@H](NC(=O)N3CCNC3=O)c3ccccc3)C(=O)N2[C@H]1C(=O)O", "fold change": 1.11}
{"compound": "O[C@@H]1[C@@H](O)C=C2CCN3Cc4cc5c(cc4[C@H]1C23)OCO5 (some centres undefined)", "fold change": 1.09}
{"compound": "O=C(c1ccc(F)cc1)N1CCCC(c2nc(-c3ccc(F)cc3)no2)C1 (centres undefined)", "fold change": 0.718}
{"compound": "COc1ccc(-c2ccc3c(N4CCOCC4C)nc(N4CCOCC4C)nc3n2)cc1CO (centres undefined)", "fold change": 1.28}

Please look at the following compound next.
Exam item: Report measured fold change; entry is O=C(CCc1ccc(O)cc1)c1c(O)cc(O)cc1OC1OC(CO)C(O)C(O)C1O (centres undefined)
Marked response: 0.673

====

assay: growth inhibition, single agents and combos, UWB1.289, cell-based, BGB or cisplatin combos, synergistic combos for chromothripsis tumors (AID 1671456); settings: UWB1.289 ovarian carcinoma cells, at 0.5 µM, stronger effect = higher value;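 also: cells exposed to compound for four days; 0% = vehicle DMSO and 100% = killing by high DMSO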
Examples of molecules with documented inhibition follow.
State the answer as a number, implicitly in %.

These recorded examples may help you get a feel for the data.
{"molecule": "O=c1ccn(C2CC(O)C(CO)O2)c(=O)[nH]1 (stereo not given)", "property": "inhibition", "value measured": 0.16}
{"molecule": "Cn1cc(-c2cnn3c(N)c(Br)c([C@H]4CCCNC4)nc23)cn1", "property": "inhibition", "value measured": 28.5}
{"molecule": "O=C(CCSc1nc2ccccc2c(=O)[nH]1)NC1CCC(c2nnc(-c3ccccc3)o2)CC1 (stereo not given)", "property": "inhibition", "value measured": 10.2}
{"molecule": "C#CCC(CCCCCC)C(=O)O (stereo not given)", "property": "inhibition", "value measured": 4.47}

Please look at the following molecule next.
Exam item: Report measured inhibition; entry is COc1cccc2c1C(=O)c1c(O)c3c(c(O)c1C2=O)CC(O)(C(C)=O)CC3OC1CC(N)C(O)C(C)O1 (stereo not given)
Marked response: 72.4

====

assay: viability loss with induced miR-34 in A549 – imaging, A549 dox-inducible miR-34, nuclei and caspase counts, primary screen (AID 1347080); settings: A549 miR-34 inducible, Hoechst nuclei count, 48 h; measured here: total cells without miR-34 induction
Cut-off 9000 on cell count, inclusive. At or above means y; below means n.

Exam item: # check: cell count of CCCSc1nc(NC2CC2c2ccc(F)c(F)c2)c2nnn(C3CC(OCCO)C(O)C3O)c2n1 (centres undefined) is greater than or equal to 9000
Marked response: n

====

Examples of molecules with documented inhibition follow.
assay: UWB1.289_BRCA1 ovarian cancer growth, cell-based, BGB or cisplatin combinations (AID 1671459); settings: UWB1.289 BRCA1 ovarian carcinoma, drug combinations, at 0.5 µM, stronger effect = higher value
State the answer as a number, implicitly in %.

These recorded examples may help you get a feel for the data.
{"molecule": "O=C(O)c1cc2cccc([N+](=O)[O-])c2[nH]1", "inhibition [%]": -21.8}
{"molecule": "CC(=O)C1(O)Cc2c(O)c3c(c(O)c2C(OC2CC(N)C(O)C(C)O2)C1)C(=O)c1ccccc1C3=O (stereo unspecified)", "inhibition [%]": 89}
{"molecule": "COc1cccc2c1C(=O)c1c(O)c3c(c(O)c1C2=O)CC(O)(C(=O)CO)CC3OC1CC(N)C(OC2CCCCO2)C(C)O1 (stereo unspecified)", "inhibition [%]": 16.1}
{"molecule": "C[n+]1ccc(-c2c3nc(c(-c4cc[n+](C)cc4)c4ccc([nH]4)c(-c4cc[n+](C)cc4)c4nc(c(-c5cc[n+](C)cc5)c5ccc2[nH]5)C=C4)C=C3)cc1", "inhibition [%]": -17.4}
{"molecule": "CCC(C)C(=O)OC1CC(C)C=C2C=CC(C)C(CCC3CC(O)CC(=O)O3)C21 (stereo unspecified)", "inhibition [%]": 3.85}

Please look at the following molecule next.
Exam item: Report measured inhibition; entry is CC(C)OC(=O)[C@H](C)NP(=O)(OC[C@H]1O[C@@H](n2ccc(=O)[nH]c2=O)C(C)(F)[C@@H]1O)Oc1ccccc1 (stereo partly specified)
Marked response: -2.85

====

assay: growth inhibition, single agents and combos, ICB984, cell-based, cisplatin or BGB combos, synergistic combos for chromothripsis tumors (AID 1671451); conditions: ICB984 medulloblastoma cells, drug combinations, BGB IC40 combo, at 0.05 µM, stronger effect = higher value;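 also: cells exposed for 96 hours before readout; 0% = vehicle DMSO and 100% = killing by high DMSO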
Non-standard residues stand in square brackets, D forms with d. Residues, ends and D or L forms follow the SMILES beside them. Dolaproine = CO[C@@H]([C@@H]1CCCN1)[C@@H](C)C(=O)O; Dil = CC[C@H](C)[C@H](NC)[C@@H](CC(=O)O)OC; NMeV = CN[C@H](C(=O)O)C(C)C
Cut-off -20% on inhibition, inclusive. At or above means MET; below means NOT MET.

Use the examples below as a reference point.
{"molecule": "Cn1cc(-c2cnn3c(N)c(Br)c([C@H]4CCCNC4)nc23)cn1", "answer label": "MET"}
{"molecule": "Nc1ccn(C2CCC(CO)O2)c(=O)n1 (centres undefined)", "answer label": "NOT MET"}
{"molecule": "CC[C@H](C)[C@@H]([C@@H](CC(=O)N1CCC[C@H]1[C@H](OC)[C@@H](C)C(=O)N[C@@H](Cc1ccccc1)C(=O)O)OC)N(C)C(=O)[C@@H](NC(=O)[C@@H](NC)C(C)C)C(C)C (H-[NMeV]V[Dil][Dolaproine]F-OH)", "answer label": "MET"}

Exam item: # check: inhibition of Nc1nc(NC2CC2)cc(-c2cccc(Cl)c2Cl)n1 is greater than or equal to -20%
Marked response: NOT MET

Exam item: # check: inhibition of Cc1ccc(NC(=O)CCCCCC(=O)Nc2ccccc2N)cc1 is greater than or equal to -20%
Marked response: MET

Exam item: # check: inhibition of COc1cccc2c1C(=O)c1c(O)c3c(c(O)c1C2=O)CC(O)(C(=O)CO)CC3OC1CC(N)C(OC2CCCCO2)C(C)O1 (centres undefined) is greater than or equal to -20%
Marked response: MET

Exam item: # check: inhibition of CC1CNC(=O)NC1=O (centres undefined) is greater than or equal to -20%
Marked response: NOT MET

Exam item: # check: inhibition of CCC(C)C(=O)OC1CC(C)C=C2C=CC(C)C(CCC3CC(O)CC(=O)O3)C21 (centres undefined) is greater than or equal to -20%
Marked response: MET

Exam item: # check: inhibition of NC(=O)c1ncn(C2OC(CO)C(O)C2O)c1O (centres undefined) is greater than or equal to -20%
Marked response: NOT MET
